Data origin, for the record: PubChem BioAssay (NCI)

- MEASUREMENT_PROTOCOL: NCI Yeast Anticancer Drug Screen. Data for the mec2-1 strain (AID 157)
- ASSAY_SETUP: S. cerevisiae mec2-1 strain, at 50.0 µM
Compounds without any hit were thinned out: in the full panel of roughly 79,000, 15% have a hit. Activity calls are given as the source filed them. Rule as the data show it: active = growth inhibition above about 70%; inactive = the rest.
Reply using exactly one outcome from yes (1) = active, no (0) = inactive

What call does the record list for C=CC(C)(CCC=C(C)C)OC(C)=O (stereo not drawn) ?
no (0)

What call does the record list for C/C(=N\Nc1ccc([N+](=O)[O-])cn1)c1ccccn1 ?
no (0)

What call does the record list for O=c1nc(NCCc2c[nH]c3ccccc23)ccn1C1OC(CO)C(O)C1O (stereo not drawn) ?
no (0)

What call does the record list for N#CC(C#N)=C(N)/C(C#N)=C/c1ccc2[nH]ccc2c1 ?
no (0)

What call does the record list for COc1ccc(-c2nc3c(nc2-c2ccc(OC)cc2)C(N)=NS(=O)(=O)N3)cc1 ?
no (0)

What call does the record list for Cc1ccc2nc(-c3ccc4nc(-c5ccc(N=Nc6ccc(-c7nc8ccc(-c9nc%10ccc(C)c(S(=O)(=O)O)c%10s9)cc8s7)cc6)cc5)sc4c3)sc2c1S(=O)(=O)O ?
no (0)

What call does the record list for COC(=O)CC(c1ccc(OC)cc1)c1cc2c(cc1OC)OCO2 (stereo not drawn) ?
no (0)

What call does the record list for O=c1c2cnccc2cc2n1CCc1c-2[nH]c2ccccc12 ?
yes (1)

What call does the record list for COC(=O)c1cc(NC(=O)Nc2ccc(Cl)cc2[N+](=O)[O-])cc(C(=O)OC)c1 ?
no (0)

What call does the record list for c1ccc(CCc2nccc3ccccc23)cc1 ?
no (0)

What call does the record list for Cn1c(Cl)cc2nc3ccccc3n2c1=O ?
no (0)

What call does the record list for NC(=S)N/N=C(\c1ccccc1)c1cccc2ccccc12 ?
no (0)

What call does the record list for CC(C)c1nnc(NC(=O)CSC(=S)N2CCOCC2)s1 ?
no (0)

What call does the record list for COc1ccccc1/C=C(\C#N)C(=O)O ?
no (0)

What call does the record list for ClC(Cl)(Cl)C(=NNc1ccccc1)C(Cl)(Cl)Cl ?
no (0)

What call does the record list for CCCC1CC(=O)NC1C(=O)O (stereo not drawn) ?
no (0)

What call does the record list for Brc1ccc2oc3ccccc3c2c1 ?
no (0)

What call does the record list for CCCCc1c(OCC)cc2n(CC)c3ccccc3n2c1=O ?
no (0)

What call does the record list for CC(=O)OCC1OC(n2ccc(=O)[nH]c2=O)C(NC(=O)C(F)(F)F)C(OC(C)=O)C1OC(C)=O (stereo not drawn) ?
no (0)

What call does the record list for COC(=O)C1OC(O[C@H]2CC[C@]3(C)[C@H]4CC=C5[C@@H]6CC(C)(C)CC[C@]6(C(=O)OC)CC[C@@]5(C)[C@]4(C)CC[C@H]3C2(C)C)C(O)C(O)C1O (stereo partly drawn) ?
no (0)

What call does the record list for CCOC(=O)c1cnc(NCCCNc2ncc(C(=O)OCC)c(=O)[nH]2)[nH]c1=O ?
no (0)

What call does the record list for CCCCCCCCCCCCCCCCCC[N+](CCCC)(CCCC)CCCCCCCCCCCCCCCCCC (tested in a mixture with another compound) ?
no (0)

What call does the record list for NC(=O)C(CCCCNc1c(C(=O)O)cc([N+](=O)[O-])cc1[N+](=O)[O-])NC(=O)c1ccccc1 (stereo not drawn) ?
no (0)

What call does the record list for CCCCCCCC1CCCC1=O (stereo not drawn) ?
no (0)

What call does the record list for Cc1c(NC(C)C)ccc(NC(C)C)c1C ?
no (0)

What call does the record list for CC(C)=CC(=O)OC1C2C(CC(C)C3C(O)CC(=O)C13C)OC(=O)C2C (stereo not drawn) ?
no (0)

What call does the record list for O=C1/C(=C/c2ccc(Cl)cc2)Oc2ccccc21 ?
no (0)

What call does the record list for Cc1ccc(C(c2ccccc2)C(CC(=O)O)CC(=O)O)cc1 (stereo not drawn) ?
no (0)

What call does the record list for CN1CCC(c2ccccc2)(C(O)(c2ccccc2)c2ccccc2)CC1 ?
no (0)

What call does the record list for COC(=O)N/N=C/c1c[nH]c2ccccc12 ?
no (0)

What call does the record list for O=C(O)c1cc(CC2Cc3cc4c(cc3C2=O)CCC4)cc2c1CCC2 (stereo not drawn) ?
no (0)

What call does the record list for O=C1Oc2ccccc2CC1C(=O)c1ccc(Cl)cc1 (stereo not drawn) ?
no (0)

What call does the record list for O=C(Cl)c1ccc(Cc2ccc([N+](=O)[O-])cc2)cc1 ?
no (0)

What call does the record list for Nc1ccc(N)c2cc(S(=O)(=O)O)ccc12 ?
no (0)

What call does the record list for N#Cc1c(-c2ccco2)c2c(n(C3OC(CO)C(O)C(O)C3O)c1=S)CCCC2 (stereo not drawn) ?
no (0)

What call does the record list for COC1=CC(=O)c2nc3ccccc3c3ccnc1c23 ?
yes (1)

What call does the record list for COC(=O)CSSCc1ccccc1 ?
no (0)

What call does the record list for CCCCCCC(=O)C/C(CCC(=O)N(Cc1ccccc1)Cc1ccccc1)=N\NC(N)=O ?
no (0)
